Target: wild type human RORγt ligand binding domain (RORyt LBD) (Homo sapiens, UniProt P51449)
Construct: His-tag (N); TurboTEV protease cleavage site (ENLYFQG) (N)
Sequence (P51449 258-518): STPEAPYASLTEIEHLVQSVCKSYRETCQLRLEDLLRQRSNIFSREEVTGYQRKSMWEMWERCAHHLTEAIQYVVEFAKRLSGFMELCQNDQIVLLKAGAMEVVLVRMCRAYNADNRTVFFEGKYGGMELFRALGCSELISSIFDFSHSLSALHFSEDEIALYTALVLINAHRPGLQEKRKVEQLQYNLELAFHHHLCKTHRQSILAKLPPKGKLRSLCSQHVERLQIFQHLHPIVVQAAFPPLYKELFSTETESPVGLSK
Test: RORγt ThermoFluor assay (thermal shift, binding affinity KD)
So basically, if Kd comes in under 2 nM it's true (1), and if it's 2 nM or more it's false (0).

Sample answers from the record:
INSERT INTO assay_data (compound, tested_on, discrete_label) VALUES
  ('COc1nc2ccc(C(O)(c3ccc(C#N)cc3)c3cncn3C)cc2c(Cl)c1Cc1ccc(-n2cncn2)cc1 (single isomer, unassigned) [Example 14c]', 'wild type human RORγt ligand binding domain (RORyt LBD) (Homo sapiens, UniProt P51449)', 'false (0)'),
  ('COc1nc2ccc(C(O)(c3ccccn3)c3cncn3C)cc2c(Cl)c1Cc1ccc(S(C)(=O)=O)cc1 (single isomer, unassigned) [Example 58b]', 'wild type human RORγt ligand binding domain (RORyt LBD) (Homo sapiens, UniProt P51449)', 'false (0)'),
  ('COc1nc2ccc(C(O)(c3ccc(C)nc3C)c3cnnn3C)cc2c(Cl)c1Cc1ccc(S(C)(=O)=O)cc1 (single isomer, unassigned) [Example 117c]', 'wild type human RORγt ligand binding domain (RORyt LBD) (Homo sapiens, UniProt P51449)', 'false (0)'),
  ('COc1nc2ccc(C(O)(c3cnnn3C)c3cnc(C)n3C)cc2c(C#N)c1Cc1ccc(F)cc1 (racemic) [Example 66a]', 'wild type human RORγt ligand binding domain (RORyt LBD) (Homo sapiens, UniProt P51449)', 'true (1)');

Query compound follows.
Ask | Does the reported Kd of CCc1nc2ccc(C(O)(c3cnc(C)n3C)C3CCOCC3)cc2c(Cl)c1Cc1ccc(C(F)(F)F)cc1 (stereo not shown) [Example 34a] stay below 2 nM?
Reply | true (1)

====

Target: wild type human RORγt LBD (Homo sapiens)
Construct: expressed in transfected cells; host or cells: HEK293T
Assay: RORγt (LBD) Reporter Assay (GAL4-luciferase, HEK293T cells)
Assay type: cell-based
Details: 6 µM compound concentration; HEK293T cells; 6 µM
OUTCOME MEASURE: RORγt (LBD) Reporter Assay, % inhibition @ 6 µM (%)
Answer in %, number only, no unit symbol.

Worked cases, RORγt (LBD) Reporter Assay, % inhibition @ 6 µM given:
INSERT INTO measurements (compound, meas_value) VALUES
  ('Cc1ccc(C(O)(c2ccc3nc(N4CCC4)c(Cc4ccc(-n5cccn5)cc4)c(Cl)c3c2)c2cnnn2C)c(C)n1 (single isomer, unassigned) [Example 141c]', 5),
  ('CNC(c1ccc2nc(OC)c(Cc3ccc(C(F)(F)F)cc3)c(Cl)c2c1)(c1ccc(C)nc1C)c1cnnn1C (single isomer, unassigned) [Example 121c]', 101),
  ('COc1nc2ccc(C(O)(c3ccc(C)nc3C)c3cnnn3C)cc2c(Cl)c1Cc1ccc(S(C)(=O)=O)cc1 (single isomer, unassigned) [Example 117c]', 101),
  ('Cc1cc(C(O)(c2ccc(Cl)cc2)c2cncn2C)cc2c(Cl)c(Cc3ccc(-n4cccn4)cc3)c(N3CCC3)nc12 (single isomer, unassigned) [Example 136c]', 97),
  ('Cn1cncc1C(O)(c1ccc(C(F)(F)F)nc1)c1ccc2nc(-n3cccn3)c(Cc3ccccc3)c(C#N)c2c1 (single isomer, unassigned) [Example 114c]', 71);

--- query ---
Ask | Value lookup for RORγt (LBD) Reporter Assay, % inhibition @ 6 µM; key = COc1nc2ccc(C(O)(c3cccnc3)c3ccc(Cl)c(Cl)c3)cc2c(Cl)c1Cc1ccc(-n2cccn2)cc1 (single isomer, unassigned) [Example 161c]
Reply | 102

====

Documented Kd across a set of compounds
Target: wild type human RORγt ligand binding domain (RORyt LBD) (Homo sapiens)
Construct: His-tag (N); TurboTEV protease cleavage site (ENLYFQG) (N)
Assay: RORγt ThermoFluor assay (thermal shift, binding affinity KD)
Answer in nM, number only, no unit symbol.

Worked cases, Kd given:
INSERT INTO results (compound, meas_value) VALUES
  ('COc1nc2ccc(C(O)(c3ccc(C)nc3C)c3cncn3C)cc2c(Cl)c1Cc1ccc(C(F)(F)F)cc1 (single isomer, unassigned) [Example 88c]', 0.08),
  ('COc1nc2ccc(C(O)(c3cnnn3C)C3CCN(C(C)=O)CC3)cc2c(Cl)c1Cc1ccc(C(F)(F)F)cc1 (racemic) [Example 74a]', 3.1);

Ask | Value lookup for Kd; key = Cc1nc2ccc(C(O)(c3ccnc(C(F)(F)F)c3)c3cncn3C)cc2c(Cl)c1Cc1ccc(C(F)(F)F)cc1 (single isomer, unassigned) [Example 30c]
Reply | 0.092

Ask | Value lookup for Kd; key = Cn1cncc1C(O)(c1ccc(C(F)(F)F)nc1)c1ccc2nc(-c3nccn3C)c(Cc3ccccc3)c(C#N)c2c1 (stereo not drawn)
Reply | 15000

Ask | Value lookup for Kd; key = COc1nc2ccc(C(O)(c3ccc(F)cc3)c3cncn3C)cc2c(Cl)c1Cc1ccc(-n2cccn2)cc1 (stereo not drawn) [Example 160a]
Reply | 49

Ask | Value lookup for Kd; key = Cn1cncc1C(O)(c1ccc(C(F)(F)F)nc1)c1ccc2nc(C(F)(F)F)c(Cc3ccccc3)c(C#N)c2c1 (stereo not drawn) [Example 108a]
Reply | 4.4

Ask | Value lookup for Kd; key = COc1nc2ccc(C(O)(c3ccc(C)nc3C)c3cnnn3C)cc2c(Cl)c1Cc1ccc(C)cc1 (stereo not drawn) [Example 20a]
Reply | 1.1

Ask | Value lookup for Kd; key = Cn1cncc1C(O)(c1ccc(C(F)(F)F)nc1)c1ccc2nc(C#N)c(Cc3ccc(F)cc3)c(C#N)c2c1 (single isomer, unassigned) [Example 53b]
Reply | 1.2

Ask | Value lookup for Kd; key = Cc1ccc(C(O)(c2ccc3nc(NC4CC4)c(Cc4ccc(C(F)(F)F)cc4)c(Cl)c3c2)c2cnnn2C)c(C)n1 (single isomer, unassigned) [Example 143c]
Reply | 2.2

Ask | Value lookup for Kd; key = CC(=O)N1CCC(C(O)(c2ccc(C(F)(F)F)nc2)c2cc(C)c3nc(C#N)c(Cc4ccc(-n5cccn5)cc4)c(C#N)c3c2)CC1 (single isomer, unassigned) [Example 79c]
Reply | 45

Ask | Value lookup for Kd; key = CC(=O)N1CCC(C(O)(c2cc(C)c3nc(C#N)c(Cc4ccc(-n5cccn5)cc4)c(C#N)c3c2)c2cncn2C)CC1 (single isomer, unassigned) [Example 81b]
Reply | 36

Ask | Value lookup for Kd; key = COc1nc2ccc(C(O)(c3cncn3C)C3CCOCC3)cc2c(Cl)c1Cc1ccc(-n2cccn2)cc1 (single isomer, unassigned) [Example 1b]
Reply | 43

Ask | Value lookup for Kd; key = COc1nc2ccc(C(O)(c3ccccn3)c3cncn3C)cc2c(Cl)c1Cc1cc2ccccc2s1 (single isomer, unassigned) [Example 59c]
Reply | 800

Ask | Value lookup for Kd; key = COc1nc2ccc(C(O)(c3ccccn3)c3cncn3C)cc2c(Cl)c1Cc1cc2ccccc2s1 (single isomer, unassigned) [Example 59b]
Reply | 34

Ask | Value lookup for Kd; key = Cn1cncc1C(O)(c1ccc(C(F)(F)F)nc1)c1ccc2nc(N3CC(O)C3)c(Cc3ccc(-n4cccn4)cc3)c(Cl)c2c1 (single isomer, unassigned) [Example 134c]
Reply | 1200

Ask | Value lookup for Kd; key = Cc1cc(C(O)(c2ccc(C(F)(F)F)nc2)c2cncn2C)cc2c(Cl)c(Cc3ccc(-n4cccn4)cc3)c(N3CCC3)nc12 (single isomer, unassigned) [Example 137c]
Reply | 4.5

Ask | Value lookup for Kd; key = COC1CN(c2nc3ccc(C(O)(c4ccc(C(F)(F)F)nc4)c4cncn4C)cc3c(Cl)c2Cc2ccc(-n3cccn3)cc2)C1 (single isomer, unassigned) [Example 133c]
Reply | 12000

Ask | Value lookup for Kd; key = Cn1cncc1C(O)(c1ccc(C(F)(F)F)nc1)c1ccc2nc(-c3nccn3C)c(Cc3ccccc3)c(Cl)c2c1 (single isomer, unassigned) [Example 113b]
Reply | 23000

====

Documented IC50 across a set of molecules
Target: wild type human RORγt LBD (Homo sapiens, UniProt P51449)
Construct: expressed in transfected cells; host or cells: HEK293T
Sequence (P51449 258-518): as above
Experiment: RORγt (LBD) Reporter Assay (GAL4-luciferase, HEK293T cells)
Format: cell-based
Conditions: HEK293T cells; value after the comma with ∼, > or < could not be included in the average
Answer in nM, number only, no unit symbol.

Ask | Value lookup for IC50; key = COc1nc2ccc(C(O)(c3ccc(C)nc3C)c3cnnn3C)cc2c(C#N)c1Cc1ccc(C(F)(F)F)nc1 (stereo not drawn) [Example 41a]
Reply | 24

Ask | Value lookup for IC50; key = COc1nc2ccc(C(O)(c3ccc(C)nc3C)c3cnnn3C)cc2c(Cl)c1Cc1ccc(C)cc1 (stereo not drawn) [Example 20a]
Reply | 40

Ask | Value lookup for IC50; key = Cn1cncc1C(O)(c1ccc(C(F)(F)F)nc1)c1ccc2nc(C#N)c(Cc3ccc(F)cc3)c(C#N)c2c1 (single isomer, unassigned) [Example 53c]
Reply | 680

Ask | Value lookup for IC50; key = Cn1cncc1C(O)(c1ccc(Cl)cc1)c1ccc2nc(C(F)(F)F)c(Cc3ccccc3)c(Cl)c2c1 (stereo not drawn)
Reply | 220

Ask | Value lookup for IC50; key = COc1nc2ccc(C(O)(c3ccc(C#N)cc3)c3cncn3C)cc2c(Cl)c1Cc1ccc(C(F)(F)F)nc1 (single isomer, unassigned) [Example 38c]
Reply | 14

Ask | Value lookup for IC50; key = Cn1cc(-c2nc3ccc(C(O)(c4ccc(C(F)(F)F)nc4)c4cncn4C)cc3c(C#N)c2Cc2ccccc2)cn1 (single isomer, unassigned) [Example 112b]
Reply | 450

Ask | Value lookup for IC50; key = COc1nc2ccc(C(O)(c3cnnn3C)C3CCOCC3)cc2c(Cl)c1Cc1ccc(C(F)(F)F)cc1 (single isomer, unassigned) [Example 85b]
Reply | 1.3

Ask | Value lookup for IC50; key = COc1nc2ccc(C(N)(c3ccc(C(F)(F)F)nc3)c3cncn3C)cc2c(Cl)c1Cc1cc2ccccc2s1 (racemic) [Example 71a]
Reply | 210

Ask | Value lookup for IC50; key = COc1nc2ccc(C(O)(c3ccc(C)nc3C)c3cnnn3C)cc2c(Cl)c1Cc1ccc(-n2cccn2)cc1 (single isomer, unassigned) [Example 17b]
Reply | 660

Ask | Value lookup for IC50; key = CC(=O)N1CCC(C(O)(c2ccc(C(F)(F)F)nc2)c2cc(C)c3nc(C#N)c(Cc4ccc(-n5cccn5)cc4)c(C#N)c3c2)CC1 (single isomer, unassigned) [Example 79c]
Reply | 230

Ask | Value lookup for IC50; key = COc1nc2ccc(C(O)(c3ccc(C)nc3C)c3cnc(C)n3C)cc2c(Cl)c1Cc1ccc(C(F)(F)F)cc1 (racemic) [Example 57a]
Reply | 22

Ask | Value lookup for IC50; key = COc1nc2ccc(C(O)(c3ccccc3)C3CCN(C(C)=O)CC3)cc2c(Cl)c1Cc1ccc(-n2cncn2)cc1 (single isomer, unassigned) [Example 18b]
Reply | 83
